compounds and their reported inhibition
assay overview: TEAD-YAP interaction inhibition, primary screen, TEAD-YAP interaction inhibitor project, luminescence, HEK-TIYL cells (AID 1259422);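 also: 0% = median of test compound wells and 100% = reference inhibitor wells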
details: TEAD-Gal4/YAP UAS-luciferase luminescence, at 9.12 µM, active compounds read high
Among all 640,000 compounds or so, about 9,300 (1.5%) were called active. Many of the other results were omitted from the sample, so actives are more common in it than they were.
Numbers only; they are read as %.

Please review the entries below; each comes with its answer.
{"columns": ["smiles string", "measurement unit", "result value"],
 "data": [
  ["Clc1nc(NCCN2CCOCC2)c2ncn(-c3ccccc3)c2n1", "%", -5.11],
  ["COc1ccc(C)cc1S(=O)(=O)N1CCN(C)CC1", "%", 13.6],
  ["NC(=O)c1ccc(-c2nc(NCCO)c3ncn(-c4ccsc4)c3n2)cc1", "%", 18.6]
]}

The value of inhibition measured for the compound `O=C(c1ccc2nc3ccc(Cl)cc3c(=O)n2c1)N1CCN(c2ccccc2)CC1` turned out to be 5.05
